Assay: qHTS Assay for Inhibitors of Influenza NS1 Protein Function
Details: series mostly up to 46.1 µM
Source text: NIH Chemical Genomics Center [NCGC] NIH Molecular Libraries Probe Centers Network [MLPCN] Assay Submitter (PI): Daniel Engel Influenza is a world-wide public health problem and emerging forms of the virus have the potential to cause a pandemic of equal or greater magnitude to the outbreaks recorded in 1918, 1957 or 1968. […] 9. Read plate using Viewlux protocol for optical density 600 (OD600) using excitation filter 600nm.
About 1,100 (0.41%) of roughly 270,000 compounds were called active. About 3% were inconclusive and are not listed. The call rests on the fitted dose curve. For the sample, actives were picked, then their nearest neighbours and some compounds at random.
Answer with one of the outcomes label 1 (active), label 0 (inactive)

Cc1ccc(-n2c(SCC(=O)N3CCC(C(=O)O)CC3)nc3ccccc3c2=O)cc1C ... label 0
CCc1ccc(OCC2c3cc(OC)c(OC)cc3CCN2C(C)=O)cc1 (stereo not drawn) ... label 0
CN(C)c1ccc(/C=C/C(=O)c2ccc(C(C)(C)C)cc2)cc1[N+](=O)[O-] ... label 1
Cc1ccc(NS(=O)(=O)c2ccc3c(c2)n(C)c(=O)c(=O)n3C)c(C)c1 ... label 0
CC(=O)c1cccc(OCc2cc(C(=O)NC(C)Cc3cccnc3)no2)c1 (stereo not drawn) ... label 0

Which outcome did this test record for the compound CCc1ccc(S(=O)(=O)Nc2cc3c(cc2N2CCCCC2)n(C)c(=O)c(=O)n3C)cc1 ?
label 1

Called result for CN1CCN(C(=O)COc2ccc(C(C)(C)C)cc2Br)CC1
label 1

Per the records of this test, what outcome belongs to O=C(O)CC(c1ccccc1)n1cnnn1 (stereo not drawn) ?
label 0

Hi team, can someone confirm the assay call for CCOC(=O)CC1COCCN1C(=O)c1cc(COc2ccc(F)c(F)c2)on1 (stereo not drawn) ?
label 0

====

Experiment: qHTS Assay for Inhibitors of Influenza NS1 Protein Function
Conditions: series mostly up to 46.1 µM
About 1,100 (0.41%) of roughly 270,000 compounds were called active. Roughly 3% stayed inconclusive and do not appear here. The call rests on the fitted dose curve. The list comes from a sample in which actives are over-represented; it also holds close analogues and randomly drawn compounds.
Would you mind answering with one of these outcomes? active, inactive

CC(=O)N1c2ccc(S(=O)(=O)N3CCCC(C(=O)Nc4cccc(F)c4)C3)cc2CC1C (stereo unspecified) ... inactive
O=C(NCCCN1CCOCC1)c1ccc2c(c1)N(Cc1cccc(F)c1)C(=O)c1ccccc1S2 ... inactive
CC1(C(=O)NNC(=S)NCC2CCCO2)CC1(Cl)Cl (stereo unspecified) ... inactive
COc1ccc(CNC(=O)CCC(=O)Nc2nnc(C(C)C)s2)cc1 ... inactive
COc1cccc(OC)c1C(=O)Nc1nnc(C(C)C)s1 ... active
CCC(NC(=O)c1cc(COc2ccc(F)c(F)c2)on1)c1ccncc1 (stereo unspecified) ... inactive
Cc1cc2cc(CNC(=O)c3cccs3)ccc2[nH]1 ... active
c1ccc(Nc2nc(N3CCOCC3)c3ccccc3n2)cc1 ... inactive
CSCc1nnc(NC(=O)c2ccc(S(=O)(=O)N3CCCCC3C)cc2)o1 (stereo unspecified) ... inactive
CC(CN1CCOCC1)OC(=O)c1ccc(C(C)(C)C)cc1 (stereo unspecified) ... inactive

For Cc1ccc(NC(=S)NCCc2ccc(Cl)cc2)c(C)c1 , which call appears in the assay record?
inactive

====

Assay: qHTS Assay for Inhibitors of Influenza NS1 Protein Function
Details: series mostly up to 46.1 µM
The campaign covered roughly 270,000 compounds. About 1,100 (0.41%) were called active. Roughly 3% stayed inconclusive and do not appear here. Calls come from the whole dose curve. Only a selection was taken, and actives are over-represented in it overall.
Pick one: active, inactive

CCc1ccccc1S(=O)(=O)Cc1ccc(C(=O)NCCc2ccccc2)o1 ... inactive
CCOC(=O)C(Cc1ccc(N)cc1)N1C(=O)c2ccccc2C1=O (stereo unspecified) ... inactive
O=c1cc(O)nc(SCc2ccccc2Cl)[nH]1 ... active
COC(=O)c1c(NC(=O)CCCC(=O)O)sc2c1CCCCC2 ... inactive
Cc1ccsc1/C=N/NC(=O)Cc1cc(=O)[nH][nH]1 ... inactive
CC(C)OC(=O)c1c(NC(=O)c2ccco2)sc2c1CCCC2 ... inactive
CCOc1ccc(Nc2nc(Cl)nc(N3CCN(c4ccc(OC)cc4)CC3)n2)cc1 ... active
COc1ccc(C(=O)NC(=S)N2CCCCC2c2cccnc2)cc1OC (stereo unspecified) ... inactive

Please find the next compound below.
// param item: Cc1ccc(SCC(=O)c2sc(-c3ccccc3)nc2C)cc1 ; yields the recorded call
inactive

====

Experiment: qHTS Assay for Inhibitors of Influenza NS1 Protein Function; further: actives are rising curves; nearly all actives have a fitted effect of over 50% in size
Conditions: series mostly up to 46.1 µM
Among all 270,000 compounds or so, about 1,100 (0.41%) were called active. Another 3% or so got no clear call; they are omitted. Calls come from the whole dose curve. The list comes from a sample in which actives are over-represented; it also holds close analogues and randomly drawn compounds.
// allowed return values: active, inactive

O=C(NC(=S)N1CCCCC1c1cccnc1)c1ccccc1 (stereo unspecified) ... inactive

// outcome(item) with item = O=C(Cc1ccc(Cl)cc1)NC(=S)Nc1ccccc1O
inactive

Any idea what this test logged for CC(C)c1ccc(OCC(=O)N2CCN(C)CC2)c(Br)c1 ?
inactive

====

Assay: qHTS Assay for Inhibitors of Influenza NS1 Protein Function; further: actives are rising curves; nearly all actives have a fitted effect of over 50% in size
Details: series mostly up to 46.1 µM
In all, about 270,000 compounds went through this assay and about 1,100 (0.41%) were called active. Another 3% or so got no clear call; they are omitted. Calls come from the whole dose curve. Shown is part of a subset that was picked to be rich in actives.
Log the outcome using a class from active, inactive

N#Cc1c(-c2cccs2)nc(SCC(=O)c2ccc(Br)cc2)[nH]c1=O ... active

Write down the call the test reported for this molecule. Item: Cc1cc(C)c(S(=O)(=O)Nc2c(C)n(C)n(-c3ccccc3)c2=O)cc1[N+](=O)[O-]
inactive

Give the logged outcome of this assay for the following molecule: Cc1ccc(CSc2nc(-c3ccccc3)c(C#N)c(=O)[nH]2)cc1
inactive

Check the results log: what was the call for COc1ccc2[nH]c(C(=O)N/N=C/c3cc(OC)c(OC)c(OC)c3)cc2c1 ?
inactive

====

Experiment: qHTS Assay for Inhibitors of Influenza NS1 Protein Function; further: actives are rising curves; nearly all actives have a fitted effect of over 50% in size
Settings: series mostly up to 46.1 µM
In all, about 270,000 compounds went through this assay and about 1,100 (0.41%) were called active. Inconclusive results (about 3%) are left out. The call rests on the fitted dose curve. This excerpt belongs to a sample that is enriched for actives.
Mark one answer only. Choices: Y = active, N = inactive

Here's what some known entries look like.
COc1ccc(/C=C2\SC(=O)N(CCC(=O)NCCCn3ccnc3)C2=O)cc1 ... N
CC(=O)Nc1ccc(OCC(O)CN2CCN(c3ccccc3Cl)CC2)cc1 (stereo unspecified) ... N
Cc1cc(C)c(SCCc2ccncc2)c(C)c1 ... N
Cc1nnc(NC(=O)Cn2c(=O)sc3ccccc32)s1 ... N

Hey, what did the test say about O=C(N/N=C/c1cccc(OCc2ccccc2)c1)c1ccc(Br)o1 ?
N

Query: recorded result category for O=C1c2cccc(OCC(=O)N3N=C(c4cccs4)CC3c3ccc(F)cc3)c2CCN1Cc1ccccc1 (stereo unspecified) in this test
Y

Field: outcome | Entry: COc1ccc(C2CC(c3cccs3)=NN2C(=O)COC(=O)c2cc3ccccc3cc2O)cc1OC (stereo unspecified)
N

For O=C(CCS(=O)(=O)c1ccccc1)Nc1nc2c(s1)CCCC2 , what call appears in the results of this test?
N

Assay result, entry COc1ccc(C2CC(c3cccs3)=NN2C(=O)CCC(=O)O)cc1OC (stereo unspecified) — outcome?
N

Call for entry COc1ccc(C(=O)CC(=O)c2ccc(C)cc2)c(O)c1 :
N

Answer briefly: the call reported for O=C(Nc1ncc([N+](=O)[O-])s1)C1COc2ccccc2O1 (stereo unspecified) in this assay.
N

====

Assay: qHTS Assay for Inhibitors of Influenza NS1 Protein Function; further: actives are rising curves; nearly all actives have a fitted effect of over 50% in size
Conditions: series mostly up to 46.1 µM
Excerpt: NIH Chemical Genomics Center [NCGC] NIH Molecular Libraries Probe Centers Network [MLPCN] Assay Submitter (PI): Daniel Engel Influenza is a world-wide public health problem and emerging forms of the virus have the potential to cause a pandemic of equal or greater magnitude to the outbreaks recorded in 1918, 1957 or 1968. […] 9. Read plate using Viewlux protocol for optical density 600 (OD600) using excitation filter 600nm.
The whole screen tested about 270,000 compounds, of which about 1,100 (0.41%) were called active. About 3% were inconclusive and are not listed. Calls come from the whole dose curve. This is one part of a sample in which actives are shown more often than they occur.
Respond with a class label; see t (active), f (inactive)

Examples from the recorded data:
O=C(Nc1ccc(S(=O)(=O)N2CCCCCC2)cc1)c1c(F)cccc1F ... f
NS(=O)(=O)c1cccc(NC(=O)CSc2nc3ccccc3n2-c2ccccc2)c1 ... f
Cc1cnc(NC(=O)c2ccc(Cl)nc2)s1 ... f
O=C(Nc1ccc(C2CC2(Cl)Cl)cc1)c1cccc([N+](=O)[O-])c1 (configuration not stated) ... f

Please let me know the test result on file for Cc1ccc(O)c(/C=N/NC(=O)COc2ccc3c(C)cc(=O)oc3c2)c1 .
f

Answer briefly: the call reported for CC(=O)N1CCc2c(sc(NC(=O)CCS(=O)(=O)c3ccccc3)c2C#N)C1 in this assay.
f

# fetch the recorded call for Cc1ccc(-n2c(SCC(=O)NCCC3=CCCCC3)nc3n[nH]c(C)c3c2=N)cc1Cl here
f
